Data provenance is the supplement of paper PMC12667976.

For each entry below, report its AIRE transcriptional activation functional score value.
B1: library; numbered along this chain (parent)
chain: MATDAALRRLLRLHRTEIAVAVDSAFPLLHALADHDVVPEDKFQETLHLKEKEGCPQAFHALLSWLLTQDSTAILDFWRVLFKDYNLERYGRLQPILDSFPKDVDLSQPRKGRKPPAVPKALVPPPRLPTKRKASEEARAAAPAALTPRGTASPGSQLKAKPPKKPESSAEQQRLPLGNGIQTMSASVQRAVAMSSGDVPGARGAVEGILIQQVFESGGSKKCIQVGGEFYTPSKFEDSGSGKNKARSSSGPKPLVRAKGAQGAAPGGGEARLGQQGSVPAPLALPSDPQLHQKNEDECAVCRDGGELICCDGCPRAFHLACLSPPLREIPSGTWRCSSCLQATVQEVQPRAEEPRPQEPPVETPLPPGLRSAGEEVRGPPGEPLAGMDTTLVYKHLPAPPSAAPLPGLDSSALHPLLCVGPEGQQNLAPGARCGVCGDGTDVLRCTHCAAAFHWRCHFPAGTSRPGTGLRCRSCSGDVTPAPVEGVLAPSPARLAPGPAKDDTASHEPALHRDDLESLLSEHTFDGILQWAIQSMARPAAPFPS

- Variants of: B1
- Test name: AIRE transcriptional activation functional score (insulin promoter-GFP; nonsense median 0, synonymous median 1) (normalised score); higher = higher AIRE activity (more reporter activation)
- Condition info: with insulin promoter-GFP reporter in HEK293
Answers are plain numbers.

Consider the worked cases shown below.
P254N | -0.115
S491N | 0.925
P350G | 1.14
E216L | 1.42
S169R | 0.711
G498V | 1.36
A281F | 1.63
V206D | 0.39

// each listed variant needs a value for AIRE transcriptional activation functional score
1. R110A
2. P422I
3. G305M
4. P266D

1. 1.41
2. 1.26
3. 0.666
4. 0.85
